test system: K562; assay: NCI tumour cell line growth inhibition, 48 h
Activity calls are given as the source filed them. Cut-off read from the data, not from the text of the source: active = GI50 up to about 1.1 µM and inactive = higher.
VALUE_KIND: GI50

CC(C)=C1C2CC3(C)CCC2(C)CCC13.CC1=CCC2C3(C)CCC2(C(C)C)C1C3 (stereo not given) | 31.4 µM (inactive)
COC(=O)C1Cc2c([nH]c3ccccc23)-c2[nH]c3ccccc3c2CC(NC(C)=O)C(=O)N2CCCC2C(=O)N1 (stereo not given) | > 100 µM (inactive)
FC(F)(F)c1ccc2c(c1)nc(-c1ccccc1)n2CC1CCCN2CCCCC12 (stereo not given) | 21.1 µM (inactive)
COC(=O)c1cc(C)c(C)c2c1NC(=O)CNC2=O | > 100 µM (inactive)
CN(C)C(=O)C1CCC(=C2C(=O)OC(C)(C)OC2=O)N1C (stereo not given) | > 100 µM (inactive)

For every record below, what is its GI50?
1. CC[C@H](C)[C@H](NC(=O)[C@H](Cc1ccc(O)cc1)NCC(F)(F)F)C(=O)OC(C)(C)C
2. CC1=NN(C(=O)c2ccc(Cl)cc2)C(=O)/C1=C/c1ccc(Cl)cc1
3. O=c1oc2ccc3ccccc3c2cc1-c1nc2ccccc2o1
4. C=CCCc1cc(OC)ccc1CN(C)C(C)(C)CO
5. CC#CCCN(CC#N)Cc1ccccc1

### Response
["8.61 µM (inactive)", "> 100 µM (inactive)", "58.3 µM (inactive)", "> 100 µM (inactive)", "> 100 µM (inactive)"]

----------
test system: CAKI-1; assay: NCI tumour cell line growth inhibition, 48 h
Calls of active or inactive are those of the source. No stated cut-off is given here; in the data, active = GI50 up to about 1.1 µM and inactive = higher.
Please state which outcome applies, choosing from active, inactive

O/N=C1/CCCC/C1=C\c1ccc(Cl)c(Cl)c1 | inactive
Cc1ccc(Nc2nc(=O)[nH]c(=O)[nH]2)cc1N=[N+]=[N-] | inactive
NS(=O)(=O)c1nnc(/N=C(/CCC(=O)O)C(=O)O)s1 | inactive
Cc1nc(Nc2ccc([N+](=O)[O-])cc2)sc1C(=O)/C=C/c1ccc(N(C)C)cc1 | inactive
O=C1C=CC(=NNc2ccccc2)C=CC1=O | inactive
COc1ccc2c3c(n(Cc4ccccc4)c(=O)c2c1)-c1cc(OC)c(OC)cc1C3C (stereo not drawn) | inactive
O=[N+]([O-])c1cccc2nc3ccccc3c(NCCCN3CCOCC3)c12 | active

Now for another entry.
### Prompt So what was the verdict on CC(C)(C)c1cc(CCC(=O)Nc2ccc(Cl)cc2)nc(S)n1 in this test?
### Response inactive

----------
system: UACC-257; assay: NCI tumour cell line growth inhibition, 48 h
Activity calls are given as the source filed them. Cut-off read from the data, not from the text of the source: active = GI50 up to about 1.1 µM and inactive = higher.
Give GI50 for every item shown.

These solved cases illustrate the format of a correct answer.
Cc1ccc(C2=C(C#N)C(=O)N3CCN=C3S2)cc1 | > 100 µM (inactive)
Nc1n[nH]c(CCCCCCCc2nnc(N)[nH]2)n1 | > 100 µM (inactive)
CC(=O)/N=C1/N(/C=C2\C(=O)Oc3ccccc3C2=O)C(=O)/C(=C/c2ccc(OC(C)=O)cc2)N1C | > 100 µM (inactive)
O=C1C=Cc2ncccc2C1=O | 20 µM (inactive)
COc1cc2oc3c(c(=O)c2c(O)c1/C=C/C(C)C)CCC(C)(C)Oc1cc(O)ccc1-3 | 14.3 µM (inactive)
O=S(=O)(O)c1ccc2cccc(/N=N\c3c(O)ccc4ccccc34)c2c1 | > 100 µM (inactive)
C/C(=N\O)C1CC(CC(=O)O)C1(C)C (stereo unspecified) | > 100 µM (inactive)
COc1ccc(/C=C2\CCC(C)(CN(C)C)C2=O)cc1Br (stereo unspecified) | 19.5 µM (inactive)
CC(Cc1ccc(O)c(O)c1)C(C)Cc1ccc(O)c(O)c1 (stereo unspecified) [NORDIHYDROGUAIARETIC ACID] | 18.2 µM (inactive)
Cc1[nH]nc2c1C(=O)C=C(N(CCO)c1ccccc1)C2=O | > 100 µM (inactive)

For every record below, what is its GI50?
1. CC1=C(/C=C/C(C)=C/C=C/C(C)=C/C(=O)Nc2ccc(O)cc2)C(C)(C)CCC1 [FENRETINIDE]
2. CCCN(CCCc1ccccc1)CCc1ccc2[nH]c(=S)[nH]c2c1
3. COC1C2C[C@@H](O)CCC2C(C(=O)OCCl)C[C@H]1O (stereo partly specified)
4. O=C1C=CC(=O)c2c1ccc1c3ccccc3n(Cc3ccccc3)c21

### Response
9.71 µM (inactive)
25.6 µM (inactive)
> 100 µM (inactive)
19 µM (inactive)

----------
system: Malme-3M; assay: NCI tumour cell line growth inhibition, 48 h
Activity calls are given as the source filed them. Rule as the data show it: active = GI50 up to about 1.1 µM and inactive = higher.
Give GI50 for every item shown.

These solved cases illustrate the format of a correct answer.
CN(c1ccccc1)c1cc2ccccc2nn1 | 87.1 µM (inactive)
CC(O[Si](C)(C)C(C)(C)C)[C@H](NC(=O)OCC(Cl)(Cl)Cl)C(=O)O (stereo not given in full) | > 100 µM (inactive)
COC(=O)N1C2C(C[C@@]1(C)C(=O)OC)c1ccccc1N2S(=O)(=O)c1ccccc1 (stereo not given in full) | > 100 µM (inactive)
Cc1ccc2nc(-c3ccc(N)c(I)c3)sc2c1 | 36.1 µM (inactive)
COC(=O)C12C3C4C1C1C2C3C41C(=O)NC(C)(C)CC(=O)O (stereo not given) | > 100 µM (inactive)

For every record below, what is its GI50?
1. Brc1ccc(/N=c2/nc3ccccn3n3nc(-c4ccccc4)cc23)cc1
2. CC(C)=CCNc1ncnc2c1ncn2CCC(=O)OC(C)(C)C
3. CN1CCCC2C(c3ccccc3)C(C3=NCCCC3)C(c3ccccc3)CC21 (stereo not given)
4. O=C(OCC1OC(c2nn[nH]n2)C(OC(=O)c2ccccc2)C1OC(=O)c1ccccc1)c1ccccc1 (stereo not given)
5. CN(C)CCCNC(=O)N/N=C/c1cccc([N+](=O)[O-])c1
6. COC(=O)[C@]12CC[C@H]3CN(C(=O)OCc4ccccc4)[C@H]([C@H]31)[C@H](c1ccco1)N2S(=O)(=O)c1ccc(C)cc1

### Response
4.34 µM (inactive)
> 100 µM (inactive)
19.6 µM (inactive)
> 100 µM (inactive)
> 100 µM (inactive)
21.3 µM (inactive)

----------
test system: SW-620; experiment: NCI tumour cell line growth inhibition, 48 h
Active and inactive are the calls of the source. No stated cut-off is given here; in the data, active = GI50 up to about 1.1 µM and inactive = higher.
Please state which outcome applies, choosing from active, inactive

CCCCCCCCCCCCCCCC(=O)Nc1ccn(C2CC(OP(=O)(O)OCC3OC(n4cc(F)c(=O)[nH]c4=O)CC3OC(C)=O)C(CO)O2)c(=O)n1 (stereo not given) | inactive
COc1cc2c(cc1OC)C(=O)/C(=C/c1cc(C)cc(C)c1)C2 | active
FC(F)(F)c1ccc2c(c1)nc(-c1ccccc1)n2CC1CCCN2CCCCC12 (stereo not given) | inactive
Cc1ccc2nc(-c3ccc(N)c(I)c3)sc2c1 | inactive
O=C1C2C=CC1C1C(=O)OC(=O)C21 (stereo not given) | inactive
CN1CCCC2C(c3ccccc3)C(C3=NCCCC3)C(c3ccccc3)CC21 (stereo not given) | inactive
O=C(/C(=C/c1cccs1)c1ccccc1)c1ccccc1 | inactive
CCN(CC)CCOc1ccc(N2Cc3cc(OC)c(OC)cc3C2=O)cc1 | inactive

### Prompt So what was the verdict on COC(=O)C(=O)C(CC(=O)Nc1ccc(C)cc1)C(=O)OC (stereo not given) in this test?
### Response inactive

### Prompt So what was the verdict on CC(O[Si](C)(C)C(C)(C)C)[C@H](NC(=O)OCC(Cl)(Cl)Cl)C(=O)O (stereo not given in full) in this test?
### Response inactive

----------
Give GI50 for every item shown.
system: SK-OV-3; assay: NCI tumour cell line growth inhibition, 48 h
Calls of active or inactive are those of the source. Rule as the data show it: active = GI50 up to about 1.1 µM and inactive = higher.

For every record below, what is its GI50?
1. O=S(=O)(O)CCCC1S(=O)(=O)OCCOS1(=O)=O
2. O/N=C(/C(Cl)=C(Cl)Cl)C(Cl)Cl
3. Cc1ccc(C(=C2Sc3ccccc3S2)C(=C2Sc3ccccc3S2)c2ccc(C)s2)s1
4. O=c1[nH]c(-c2ccccc2)nc2cc([N+](=O)[O-])c(/C(Cl)=C/c3ccccc3)cc12
5. CC(=O)Nc1cc(C(=O)Nc2cc(C(=O)Nc3cc(C(=O)Nc4cc(C(=O)Nc5cc(C(=O)NCCC(=O)NCCCN(C)C)n(C)c5)n(C)c4)n(C)c3)n(C)c2)n(C)c1
6. O=c1[nH]nc2ccccc2c1Cl
7. O=C(CCCN1CCC2(CC1)C(=O)NC(=O)N2c1ccccc1)c1ccc(F)cc1
8. CCOC(=O)N1CCC(=O)C[C@@H]1C/C=C/P1(=O)O[C@H](c2ccccc2)C(C)N1C(C)C (stereo not given in full)

### Response
1. > 100 µM (inactive)
2. 28.8 µM (inactive)
3. > 100 µM (inactive)
4. 27.3 µM (inactive)
5. > 100 µM (inactive)
6. 17.7 µM (inactive)
7. > 100 µM (inactive)
8. > 100 µM (inactive)

For every record below, what is its GI50?
1. CC#CCCN(CC#N)Cc1ccccc1
2. Oc1ccc2c(c1)CCc1c-2n(CCN2CCOCC2)c2ccc(O)cc12

### Response
> 100 µM (inactive)
46.3 µM (inactive)
